- tgt: HLA-DRB1*1101 (Homo sapiens, UniProt P01903+P01911, A100R/A169T/A87E/I96F/K41T/L162R/M171V/P40S/Q125H/Q178H/Q39Y/Q99D/R42S/S66Y/T262R/V115G/W38E)
- Sequence (P01903 26-254 limits assumed, other chains not shown): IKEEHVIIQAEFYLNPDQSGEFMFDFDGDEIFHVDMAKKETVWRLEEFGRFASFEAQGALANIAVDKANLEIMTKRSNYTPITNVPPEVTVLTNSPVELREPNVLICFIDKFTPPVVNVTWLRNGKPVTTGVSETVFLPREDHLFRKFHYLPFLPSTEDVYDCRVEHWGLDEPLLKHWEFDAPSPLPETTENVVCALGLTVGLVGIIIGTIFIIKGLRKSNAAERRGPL
- assay: biochemical
- Format: binding
- measurement_setup: binding inhibition assay; NB = non-binder (no dose-dependent inhibition); read-out: DRB1*1101 IC50
Where a SMILES comes first, the peptide text is derived from it.
measured_endpoint: IC50 (µM)
Numeric only. Scale: µM

// field: IC50; key: CC[C@H](C)[C@H](NC(=O)[C@H](CO)NC(=O)[C@@H](NC(=O)[C@@H]1CCCN1C(=O)[C@@H](NC(=O)[C@H](CC(=O)O)NC(C)=O)C(C)C)[C@@H](C)CC)C(=O)N[C@H](C(=O)N[C@@H](CCCNC(=N)N)C(=O)N[C@@H](CC(N)=O)C(=O)N[C@@H](CC(N)=O)C(=O)N[C@@H](CCC(=O)O)C(=O)N[C@@H](CCC(N)=O)C(=O)N[C@H](C(=O)N[C@@H](CO)C(=O)N[C@@H](CCC(N)=O)C(=O)N[C@@H](CCC(=O)O)C(=O)N[C@@H](C)C(N)=O)[C@@H](C)O)[C@@H](C)CC [EBA175_014] (Ac-DVPISIIRNNEQTSQEA-NH2) ; value = 16.7

----------
Entries and their IC50
- tgt: HLA-A*2402 (Homo sapiens, UniProt P04439, D101N/D140Y/D185E/E176V/E190D/F33S/G103R/G107R/I119L/I121M/I306V/K335N/L105A/L180Q/L300P/N151K/N90K/Q86E/Q94H/R106L/R138H/R89G/T104I/T345S/V100E/W191G/Y123F)
- assay: In vitro class I HLA binding assay (fluorescence polarization competition)
- measurement_setup: allele A*2402; fluorescence polarization competition; read-out: IC50 (nM), in vitro HLA binding affinity
Where a SMILES comes first, the peptide text is derived from it.
Numeric only. Scale: nM

compound	IC50 / nM
CSCC[C@H](NC(=O)[C@@H](N)CC(=O)O)C(=O)N[C@@H](CCCCN)C(=O)N[C@@H](CC(N)=O)C(=O)N[C@@H](Cc1ccc(O)cc1)C(=O)NCC(=O)N[C@H](C(=O)N[C@@H](CC(N)=O)C(=O)N[C@@H](CC(C)C)C(=O)N[C@@H](Cc1ccccc1)C(=O)O)[C@@H](C)O [RH5_331] (H-DMKNYGTNLF-OH)	5310

// field: IC50; key: CC[C@H](C)[C@H](NC(=O)[C@H](CC(=O)O)NC(=O)[C@@H](N)CCC(=O)O)C(=O)N1CCC[C@H]1C(=O)N[C@@H](Cc1c[nH]cn1)C(=O)N[C@H](C(=O)N[C@@H](CC(N)=O)C(=O)N[C@@H](CCC(=O)O)C(=O)N[C@@H](Cc1ccccc1)C(=O)O)C(C)C [AMA1_321] (H-EDIPHVNEF-OH) ; value = 83000

// field: IC50; key: CC(C)C[C@H](NC(=O)[C@H](Cc1c[nH]cn1)NC(=O)[C@H](CCCCN)NC(=O)[C@H](Cc1ccc(O)cc1)NC(=O)[C@H](Cc1ccc(O)cc1)NC(=O)[C@H](CC(=O)O)NC(=O)[C@H](CC(C)C)NC(=O)[C@H](Cc1ccccc1)NC(=O)[C@@H](N)[C@@H](C)O)C(=O)O [RH5_180] (H-TFLDYYKHL-OH) ; value = 215

----------
- tgt: HLA-DRB1*0101 (Homo sapiens, UniProt P01903+P01911, A100R/D57E/F55L/F60I/F76Y/I96L/L162R/M171V/P40L/Q125E/R42F/V115G/Y59C)
- Construct: purchased
- assay: biochemical
- Assay type: binding
- measurement_setup: binding inhibition assay; NB = non-binder (no dose-dependent inhibition); read-out: DRB1*0101 IC50
Where a SMILES comes first, the peptide text is derived from it.
Entries and their pIC50
In plain terms, pIC50 is the concentration in mol/L turned into minus its base-10 logarithm.

compound	pIC50
CC[C@H](C)[C@H](NC(=O)[C@H](CC(C)C)NC(=O)[C@H](Cc1c[nH]cn1)NC(=O)[C@H](Cc1ccccc1)NC(=O)[C@H](CCCCN)NC(=O)[C@H](CO)NC(=O)[C@H](CCCCN)NC(C)=O)C(=O)N[C@@H](CO)C(=O)N[C@@H](CCCNC(=N)N)C(=O)N[C@@H](CC(N)=O)C(=O)N[C@@H](CO)C(=O)N[C@@H](CCCNC(=N)N)C(=O)N[C@H](C(=O)N[C@@H](CC(N)=O)C(=O)N[C@@H](CCC(N)=O)C(=O)N[C@@H](Cc1ccc(O)cc1)C(N)=O)[C@@H](C)O [RIPR_009] (Ac-KSKFHLISRNSRTNQY-NH2)	6.36

Could you now consider this next compound?
// field: pIC50; key: CC[C@H](C)[C@H](NC(=O)[C@H](Cc1ccc(O)cc1)NC(=O)[C@@H](NC(=O)[C@H](Cc1ccc(O)cc1)NC(=O)[C@H](CO)NC(=O)CNC(=O)[C@H](CCSC)NC(=O)[C@H](CCCCN)NC(=O)[C@H](CCCCN)NC(=O)[C@H](CC(N)=O)NC(=O)[C@H](CC(C)C)NC(=O)[C@H](CC(N)=O)NC(=O)[C@@H](NC(=O)[C@H](CC(C)C)NC(=O)[C@H](CC(C)C)NC(=O)[C@H](CC(C)C)NC(=O)[C@H](CCC(=O)O)NC(=O)[C@@H](N)CO)[C@@H](C)O)[C@@H](C)CC)C(N)=O [RH5_010B] (H-SELLLTNLNKKMGSYIYI-NH2) ; value = 7.11

----------
- tgt: HLA-A*0101 (Homo sapiens, UniProt P04439, A114D/A174V/A182V/D101N/D185E/E176A/E190D/L180R/Q94H/R68K/S129P/T187R/V100A/V91M/W191G)
- assay: biochemical
- Format: binding
- measurement_setup: allele A*0101; fluorescence polarization competition; read-out: IC50 (nM), in vitro HLA binding affinity
Where a SMILES comes first, the peptide text is derived from it.
Entries and their IC50
Numeric only. Scale: nM

compound	IC50, nM
CC(C)C[C@H](NC(=O)[C@H](Cc1c[nH]cn1)NC(=O)[C@H](CCCCN)NC(=O)[C@H](Cc1ccc(O)cc1)NC(=O)[C@H](Cc1ccc(O)cc1)NC(=O)[C@H](CC(=O)O)NC(=O)[C@H](CC(C)C)NC(=O)[C@@H](N)Cc1ccccc1)C(=O)N[C@@H](CO)C(=O)N[C@@H](Cc1ccc(O)cc1)C(=O)O [RH5_181] (H-FLDYYKHLSY-OH)	646
C[C@@H](O)[C@H](NC(=O)[C@@H](N)CO)C(=O)N[C@@H](CS)C(=O)N[C@@H](Cc1ccc(O)cc1)C(=O)NCC(=O)N[C@@H](CC(N)=O)C(=O)N[C@@H](CCCNC(=N)N)C(=O)N[C@@H](Cc1ccccc1)C(=O)N[C@@H](CC(N)=O)C(=O)N[C@@H](Cc1ccc(O)cc1)C(=O)O [RIPR_0648] (H-STCYGNRFNY-OH)	54000
N=C(N)NCCC[C@H](NC(=O)[C@H](Cc1ccc(O)cc1)NC(=O)[C@H](CO)NC(=O)[C@H](CC(=O)O)NC(=O)[C@H](CC(=O)O)NC(=O)[C@H](CC(N)=O)NC(=O)[C@H](CCCCN)NC(=O)[C@@H](N)CC(N)=O)C(=O)N[C@@H](Cc1ccc(O)cc1)C(=O)O [RH5_246] (H-NKNDDSYRY-OH)	6680
CC[C@H](C)[C@H](NC(=O)[C@H](CCC(=O)O)NC(=O)[C@@H](NC(=O)[C@@H](N)CO)[C@@H](C)CC)C(=O)N[C@H](C(=O)N[C@@H](CCC(=O)O)C(=O)N[C@@H](CCCNC(=N)N)C(=O)N[C@@H](CO)C(=O)N[C@@H](CC(N)=O)C(=O)N[C@@H](Cc1ccc(O)cc1)C(=O)O)C(C)C [AMA1_096] (H-SIEIVERSNY-OH)	12100
CC[C@H](C)[C@H](NC(=O)[C@H](Cc1ccc(O)cc1)NC(=O)[C@H](CCC(=O)O)NC(=O)[C@H](CC(=O)O)NC(=O)[C@H](CC(N)=O)NC(=O)[C@@H](N)CC(C)C)C(=O)N[C@H](C(=O)N[C@@H](CO)C(=O)N[C@@H](Cc1ccc(O)cc1)C(=O)O)C(C)C [CYRPA_286] (H-LNDEYIVSY-OH)	28100

Could you now consider this next compound?
// field: IC50; key: CC(C)[C@H](NC(=O)[C@H](CC(N)=O)NC(=O)[C@H](CCCCN)NC(=O)[C@H](Cc1ccc(O)cc1)NC(=O)[C@H](CC(=O)O)NC(=O)[C@H](CCC(=O)O)NC(=O)[C@@H](N)CC(N)=O)C(=O)N[C@@H](CC(=O)O)C(=O)N[C@@H](Cc1ccc(O)cc1)C(=O)O [RH5_131] (H-NEDYKNVDY-OH) ; value = 8920
